# procedure details: qHTS Assay for Inhibitors of the ERK Signaling Pathway using a Homogeneous Screening Assay; Stimulation with EGF; note: nearly all actives have a fitted effect of over 55% in size
# cond: HEK293-V1b, EGF-stimulated phospho-ERK AlphaScreen; series mostly up to 11.5 µM
The campaign covered roughly 130,000 compounds. About 550 (0.42%) were called active. Not shown: some 4% with an inconclusive outcome. Calls come from the whole dose curve; as a rule, active = well fitted inhibition curve with a large enough effect; inconclusive = small, poorly fitted or top-dose-only effect, or effect the other way; inactive = flat fitted curve, though single readings scatter. The sample as a whole holds a higher share of actives than the screen did.
Could you please pick one outcome from this set? active, inactive

Exercise: Please state the recorded outcome for this molecule: `O=C(O)c1cccnc1Sc1ncnc2sc3c(c12)CCC3`
Solution: inactive

Exercise: How did this test come out for CN(C)S(=O)(=O)c1ccc(Cl)c(NC(=O)COC(=O)CC(NC(N)=O)c2ccc(Cl)cc2)c1 (centres undefined) ?
Solution: inactive

Exercise: Please indicate how the test categorized `O=C(O)c1n[nH]nc1-c1ccccc1` .
Solution: inactive

Exercise: // return assay outcome for `CCC/C(C)=N\Nc1nc2c(c(=O)n(C)c(=O)n2C)n1C`
Solution: inactive

Exercise: // param item: `N#C/C(=C/c1ccc(-c2ccccc2[N+](=O)[O-])o1)C(=O)NCCN1CCCCC1` ; yields the recorded call
Solution: inactive

Exercise: Which result was noted for this molecule in the test: `CCCn1nc(Oc2nc(NC(C)C)nc(N(C)C)n2)ccc1=O`
Solution: inactive

Exercise: Called result for `O=C(NNC(=O)c1ccc(Cl)cc1Cl)c1cccs1`
Solution: inactive

Exercise: Per the assay record, what outcome was assigned to `O=S(=O)(Nc1n[nH]c(C(F)(F)F)n1)c1ccccc1` ?
Solution: inactive

Exercise: Lab log entry: `O=C(/C=C/c1ccc2c(c1)OCO2)NCc1cn2cc(Cl)ccc2n1` — outcome as called in the assay?
Solution: inactive

Exercise: For `CC(C)=NN1C(=O)c2ccccc2NC1(C)C` , which call appears in the assay record?
Solution: inactive

Exercise: Dear colleague, could you share the recorded outcome for `Cc1c(C(=O)O)nnn1-c1nonc1N` when you have a moment?
Solution: inactive

Exercise: Test call, this molecule: `COc1ccc(N=Nc2ccc(O)c(P(=O)(c3ccccc3)c3ccccc3)c2)cc1`
Solution: inactive

Exercise: Call for entry `O=C(NCc1csc(-c2cccs2)n1)C1CC1` :
Solution: inactive

Exercise: Dear all, I need the recorded test outcome for `O=C(O)/C=C/c1ccc2c(c1)OCCO2` , thank you.
Solution: inactive

Exercise: What is the recorded call for this molecule in the test? CC1CCc2c(nc3ncnn3c2Nc2ccc(OC(F)(F)F)cc2)C1 (centres undefined)
Solution: inactive

Exercise: # outcome recorded in this test, key = `CCOC(=O)C1=C(c2ccc(OC)cc2)C(=O)c2ccccc2C1=O`
Solution: active

Exercise: Please share the test call associated with `CC1(C)OC(=O)C(=CSc2ccc(C(C)(C)C)cc2)C(=O)O1` .
Solution: inactive

Exercise: Hello, I am checking results. What call was entered for CN(CCc1cn[nH]c1)C(=O)CC1C(=O)NCCN1Cc1cccc(Oc2ccccc2)c1 (centres undefined) ?
Solution: inactive

Exercise: Could you kindly confirm the outcome this assay logged for `CC(C)NC(=O)NC(=O)CSc1nnc(-c2ccccc2F)n1N` ?
Solution: inactive

Exercise: I'd appreciate the recorded outcome for `Oc1ccc(N=Cc2c(O)ccc3ccccc23)cc1` from this test.
Solution: inactive

Exercise: What did this assay record as the result for `Cc1nc(S(=O)(=O)c2ccc(Br)cc2)nc2c1CCC2` ?
Solution: inactive

Exercise: Assay outcome for `CC(C)(C)NC(=O)NCc1ccco1` : what was it?
Solution: inactive

Exercise: Recorded test call requested for `CCOC(=O)CN(C(=O)COc1nc(-c2ccccc2)cc(C)c1C#N)c1ccc(F)cc1`
Solution: inactive

Exercise: Hi, do you know how `NS(=O)(=O)c1ccc(NC(=O)COC(=O)c2ccco2)cc1` came out in this test?
Solution: inactive
